# assay.target: ΔF508-CFTR (Homo sapiens, UniProt P13569, DEL508-508)
# Construct: host or cells: CFBE41o-, doxycycline-inducible
# Sequence (P13569 with tags, fused parts or gaps DEL508-508): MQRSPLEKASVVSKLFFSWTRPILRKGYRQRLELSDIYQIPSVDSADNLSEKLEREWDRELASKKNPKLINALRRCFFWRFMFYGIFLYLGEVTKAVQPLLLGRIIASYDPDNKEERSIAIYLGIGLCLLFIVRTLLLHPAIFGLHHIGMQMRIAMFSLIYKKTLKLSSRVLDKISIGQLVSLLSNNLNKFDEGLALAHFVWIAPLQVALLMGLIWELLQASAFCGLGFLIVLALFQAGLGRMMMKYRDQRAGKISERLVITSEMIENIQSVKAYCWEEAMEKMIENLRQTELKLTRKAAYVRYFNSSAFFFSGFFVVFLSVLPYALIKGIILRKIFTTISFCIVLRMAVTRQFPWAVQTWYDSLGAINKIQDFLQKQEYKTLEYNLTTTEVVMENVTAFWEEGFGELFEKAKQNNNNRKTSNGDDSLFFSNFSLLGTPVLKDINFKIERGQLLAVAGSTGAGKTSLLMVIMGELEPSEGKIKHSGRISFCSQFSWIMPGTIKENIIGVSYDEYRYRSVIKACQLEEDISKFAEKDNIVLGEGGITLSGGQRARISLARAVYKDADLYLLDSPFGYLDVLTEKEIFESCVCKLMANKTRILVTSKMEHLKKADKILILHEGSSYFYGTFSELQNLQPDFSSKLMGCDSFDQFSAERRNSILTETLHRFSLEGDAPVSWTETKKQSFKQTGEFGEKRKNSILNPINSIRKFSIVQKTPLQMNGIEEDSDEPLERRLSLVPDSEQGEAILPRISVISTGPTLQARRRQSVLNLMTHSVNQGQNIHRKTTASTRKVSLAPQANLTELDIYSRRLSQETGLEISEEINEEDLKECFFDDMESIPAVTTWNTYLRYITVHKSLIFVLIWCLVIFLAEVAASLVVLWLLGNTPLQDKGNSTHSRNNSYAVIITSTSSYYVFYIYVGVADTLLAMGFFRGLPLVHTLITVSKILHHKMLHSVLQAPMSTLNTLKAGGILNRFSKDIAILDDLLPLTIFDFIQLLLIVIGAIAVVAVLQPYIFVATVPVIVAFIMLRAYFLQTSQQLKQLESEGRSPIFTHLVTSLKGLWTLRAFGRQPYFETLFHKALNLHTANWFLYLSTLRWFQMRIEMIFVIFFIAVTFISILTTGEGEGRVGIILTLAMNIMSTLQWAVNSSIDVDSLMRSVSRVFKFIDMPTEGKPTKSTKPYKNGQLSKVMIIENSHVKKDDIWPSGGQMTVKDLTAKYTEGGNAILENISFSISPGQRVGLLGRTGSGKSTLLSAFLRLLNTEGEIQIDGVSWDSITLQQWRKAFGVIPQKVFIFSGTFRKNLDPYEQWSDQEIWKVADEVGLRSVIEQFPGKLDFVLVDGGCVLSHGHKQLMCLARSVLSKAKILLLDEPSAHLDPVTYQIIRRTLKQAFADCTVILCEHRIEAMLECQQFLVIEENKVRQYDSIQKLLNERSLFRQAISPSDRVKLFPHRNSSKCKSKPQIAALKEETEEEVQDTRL
# test.summary: CFTR cell surface levels using HRP-tagged ΔF508-CFTR expressing CFBE cells, intrinsic corrector capacity
# Assay type: cell-based
# test.settings: HRP-tagged ΔF508-CFTR CFBE41o- cells, compounds alone (intrinsic corrector capacity), 20 hours at 33° C.; read-out: EC50
pEC50: −log10 of the molar value.
property: pEC50

| molecule | assay.result |
| --- | --- |
| Cc1nn(-c2ccccc2)c2nc(C(=O)O)cc(-c3ccc(N4CCC5(CC4)COC5)cc3)c12 | 6.04 |
| COC1CN(c2cccc(-n3nc(C(C)C)c4c(-c5ccc(N6CCOCC6)cc5)cc(C(=O)O)nc43)c2)C1 | 6.17 |
| COC1CCCN(c2cc(C(=O)O)nc3c2c(C(C)C)nn3-c2cccc(C)c2)C1 (stereo not shown) | 6.03 |
| CC(C)c1nn(-c2cccc(N3CCOCC3)c2)c2nc(C(=O)O)cc(-c3cnc(N4CCC(C#N)CC4)nc3)c12 | 5.95 |
| CO[C@H]1CCN(c2cc(C(=O)O)nc3c2c(C)nn3-c2ccccc2)C1 | 5.38 |
| Cc1nn(C2CCCCC2)c2nc(C(=O)O)cc(-c3ccc(N4CCOCC4)nc3)c12 | 5.59 |
| CC(C)c1nn(C2CCCOC2)c2nc(C(=O)O)cc(-c3ccc(N4CCOCC4)cc3)c12 (stereo not shown) | 5.76 |
